experiment: in vitro; conditions: PAMPA
readout_label: Cross BBB potential

Example results:
compound="Oc1ccc(/C=C/c2cc(O)cc(O)c2)cc1 [Trans-resveratrol]" result=-
compound="O=C(O)c1ccc(O)c(O)c1 [Protocatechuic acid]" result=+++
compound="CC(C)c1cc2c(cc1O)[C@@]1(C)CCCC(C)(C)[C@@H]1CC2=O [Sugiol]" result=++
compound="CCC(O)C1CC(C)C2(CC(=O)C3(C)C4=C(CCC32C)C2(C)CCC(=O)C(C)(CO)C2CC4)O1 (stereo not drawn) [Triterpene*]" result=++

Turning to the following compound.
[in] Which Cross BBB potential value is on record for O=c1oc2c(O)c(O)cc3c(=O)oc4c(O)c(O)cc1c4c23 [Ellagic acid] ?
[out] -

* * *

assay: in vitro; details: compound within LPLE (Nothofagus pumilio, lenga PLE extract); classes based on Könczöl et al.
readout_label: Cross BBB potential

compound="Oc1ccc(/C=C/c2cc(O)cc3c2[C@@H](c2cc(O)cc(O)c2)[C@H](c2ccc(O)cc2)O3)cc1 [ε-Viniferin]" result=-
compound="O=C1c2c(O)cc(O)cc2O[C@H](c2ccc(O)cc2)[C@H]1O [Aromadendrin]" result=-
compound="OC[C@H]1O[C@@H](Oc2cc(O)cc(/C=C/c3ccc(O)cc3)c2)[C@H](O)[C@@H](O)[C@@H]1O [Piceid]" result=-

* * *

// Papp at 4 h lookup, one value per entry
experiment: in vitro; conditions: PAMPA, pH 7.4, PAMPA-BBB log Pe (cm s−1), compound within KD extract; 4 h, 37°C, PBS pH 7.4
Answer in ×10⁻⁶ cm/s, number only, no unit symbol.

// known answers, use as guide
input_smiles=COc1c(O)cc2oc(-c3ccc(O)c(O)c3)cc(=O)c2c1O readout_label="Papp at 4 h" result_number=339
input_smiles=COc1cc(C(=O)O)ccc1O readout_label="Papp at 4 h" result_number=55
input_smiles=O=c1c(O)c(-c2ccc(O)cc2)oc2cc(O)cc(O)c12 readout_label="Papp at 4 h" result_number=14.8

Next compound, please.
[in] Value lookup for Papp at 4 h; key = `O=C(O)c1ccc(O)c(O)c1`
[out] 105

* * *

Test: in vitro
Details: PAMPA, pH 7.4, PAMPA-BBB log Pe, compound within LPLE (Nothofagus pumilio, lenga PLE extract); N.D = not detected in acceptor
Experimental: The PAMPA-BBB assay was conducted according to the methodology followed by Di et al., with some modifications as described below ([15]). First, the BBB solution was prepared by dissolving 8 mg of PBL and 4 mg of cholesterol in 600 μl of n-dodecane. […] Permeability across in vitro BBB of the bioactive compound was measured according to Equation (1) ([25]), with some modifications in concentration rates. […] Cequilibrium was calculated according to the following equation ([2]): […]
Define the label as satisfied when Papp at 4 h is strictly less than 30 ×10⁻⁶ cm/s and as not satisfied in all remaining cases.

compound="O=c1c(O)c(-c2ccc(O)c(O)c2)oc2cc(O)cc(O)c12 [Quercetin, reference compound]" classification=satisfied

[in] Please state whether Papp at 4 h is below 30 ×10⁻⁶ cm/s for COc1cc2ccc(=O)oc2cc1O [Scopoletin]
[out] satisfied

[in] Try the compound O=C(O)c1cc(O)c(O)c(O)c1 [Gallic acid]
[out] not satisfied

[in] Let us now turn to O=C(O)c1ccc(O)c(O)c1 [Protocatechuic acid]
[out] not satisfied

[in] And then COc1cc(C(=O)O)ccc1O [Vanillic acid] , what is it?
[out] satisfied

[in] Then this compound: O=c1c(O)c(-c2ccc(O)cc2)oc2cc(O)cc(O)c12 [Kaempferol]
[out] satisfied

* * *

assay: in vitro; conditions: PAMPA, pH 7.4, PAMPA-BBB log Pe (cm s−1)
Below, each entry is listed with its recorded Papp at 4 h.
Output spec: scalar in ×10⁻⁶ cm/s, unitless text.

Example entries and their recorded answers appear below.
input_smiles=O=C(/C=C/c1ccc(O)c(O)c1)O[C@@H]1C[C@](O)(C(=O)O)C[C@@H](O)[C@H]1O result_number=10.2
input_smiles=O=c1cc(-c2ccc(O)c(O)c2)oc2cc(O)cc(O)c12 result_number=38

[in] Recorded Papp at 4 h for `COc1cc(O)c2c(=O)cc(-c3ccc(O)cc3)oc2c1` , please?
[out] 9.55

[in] Same question, `C[C@H]1[C@H](C)CC[C@]2(C(=O)O)CC[C@]3(C)C(=CC[C@@H]4[C@@]5(C)C[C@@H](O)[C@H](O)[C@@](C)(CO)[C@@H]5CC[C@]43C)[C@H]12` this time
[out] 64.6

[in] // query: `COc1cc2ccc(=O)oc2cc1O`
[out] 75.9

[in] Let us now turn to `CC(C)c1cc2c(cc1O)[C@@]1(C)CCCC(C)(C)[C@@H]1CC2=O`
[out] 4.57

[in] Same for `C=C(C)[C@@H]1CC[C@]2(C(=O)O)CC[C@]3(C)[C@H](CC[C@@H]4[C@@]5(C)CC[C@H](O)C(C)(C)[C@@H]5CC[C@]43C)[C@@H]12`
[out] 0.229

* * *

Assay: in vitro
Conditions: PAMPA, 4 h, pH 7.4
Protocol: The PAMPA-BBB assay was conducted according to the methodology followed by Di et al., with some modifications as described below ([15]). First, the BBB solution was prepared by dissolving 8 mg of PBL and 4 mg of cholesterol in 600 μl of n-dodecane. […] Permeability across in vitro BBB of the bioactive compound was measured according to Equation (1) ([25]), with some modifications in concentration rates. […] Cequilibrium was calculated according to the following equation ([2]): […]
Listed below: PAMPA-BBB log Pe (cm s−1) values for each entry.
Please state the figure in cm s−1; there is no need to write the unit.

compound=O=C(O)c1ccc(O)c(O)c1 result_number=−3.92
compound=CC(C)C1=Cc2ccc3c(c2C(=O)C1=O)CCCC3(C)C result_number=−5.00
compound=CC(C)c1cc2c(c(O)c1O)[C@@]13CCCC(C)(C)[C@@H]1[C@H](OC3=O)C2=O result_number=−4.41

[in] PAMPA-BBB log Pe (cm s−1) for `COc1ccc(-c2cc(=O)c3c(O)cc(OC)cc3o2)cc1` ?
[out] −4.22

[in] Consider next the compound O=C(O)C[C@H]1CCC(=O)[C@@H]1C/C=C\CCO [12- Hydroxyjasmonic acid] in the same way.
[out] −4.06

[in] What about this compound? `COc1cc2oc(-c3ccc(O)cc3)cc(=O)c2c(O)c1OC`
[out] −4.36

[in] Next compound: CCC(O)C1CC(C)C2(CC(=O)C3(C)C4=C(CCC32C)C2(C)CCC(=O)C(C)(CO)C2CC4)O1 (stereo not drawn)
[out] −4.97

[in] Check `CC(=O)OC(C)(C)[C@@H]1CC[C@@]2(C)CO[C@]3(C)C=CO[C@]23C1` too.
[out] −4.51

[in] Queued: CC(C)=CCc1cc(/C=C/C(=O)O)cc(CC=C(C)C)c1O [Artepillin C]
[out] −4.42

[in] // next record `COc1c(O[C@@H]2O[C@H](CO)[C@@H](O)[C@H](O)[C@H]2O)cc2oc(-c3ccc(O)cc3)cc(=O)c2c1O`
[out] −4.24

[in] Another compound to look at: CC/C=C/CC(O)C(O)/C=C/C(O)CCCCCCCC(=O)O (stereo not drawn)
[out] −3.73

[in] Also check CC(C)c1cc2c(c(O)c1O)C(=O)C1CCCC(C)(C)C1CC2 (stereo not drawn)
[out] −5.55

* * *

test: in vitro; conditions: compound within RSFE extract
readout_label: Cross BBB potential

compound=C=C1CC[C@]2(C(=O)O)CC[C@]3(C)C(=CC[C@@H]4[C@@]5(C)CC[C@H](O)C(C)(C)[C@@H]5CC[C@]43C)[C@@H]2[C@H]1C result=-
compound="CC(C)c1cc2c(cc1O)C1(C)CCC(=O)C(C)(C)C1CC2 (stereo not drawn)" result=-
compound=CC(C)c1cc2c(c(O)c1O)[C@@]13CCCC(C)(C)[C@@H]1C[C@@H]2OC3 result=-

* * *

Form field: Papp at 4 h (one value per entry).
experiment: in vitro; conditions: PAMPA, pH 7.4, PAMPA-BBB log Pe (cm s−1), compound within RSFE extract; 4 h, 37°C, PBS pH 7.4
Write down the numeric answer in nm/s and omit the unit.

compound="COc1ccc(-c2cc(=O)c3c(O)c(O)c(OC)cc3o2)cc1 [Ladanein]" readout_label="Papp at 4 h" result_number=1410
compound="CC(C)c1cc2c(c(O)c1O)[C@@]13CCCC(C)(C)[C@@H]1C[C@@H]2OC3=O [Carnosol]" readout_label="Papp at 4 h" result_number=501
compound="O=C(O)[C@]1(O)C[C@@H](O)[C@@H](O)[C@H](O)C1 [Quinic acid]" readout_label="Papp at 4 h" result_number=60.3

Then this compound:
[in] Look up Papp at 4 h: CC(C)c1cc2c(c(O)c1O)[C@@]13CCCC(C)(C)[C@@H]1[C@H](OC3=O)[C@H]2O [Rosmanol]
[out] 1450
